- experimental-details: chemical genetic growth profiling, strain panel (AID 1159580);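 also: tested at 20 µM; growth read once vehicle control cultures reached saturation at 30 °C; 1 = growth at the plate median or of vehicle wells; lower values mean less growth of the strain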
- applied-conditions: S. cerevisiae deletion strains, growth OD, locus YDR195W, strain ref2
Among all 5,500 compounds or so, about 2,000 (36%) were called active. Not shown: some 18% with an inconclusive outcome. Some of the results follow.
readout: normalized growth
Numbers only.

Please review the entries below; each comes with its answer.
{"structure-smiles": "CN1CCN(CC(=O)N2c3ccccc3C(=O)Nc3cccnc32)CC1", "reported": 0.999}
{"structure-smiles": "CNS(=O)(=O)c1ccc(NC(=O)c2ccccc2C(=O)O)cc1", "reported": 0.977}
{"structure-smiles": "CCCc1nc2c(C)cc(-c3nc4ccccc4n3C)cc2n1Cc1ccc(-c2ccccc2C(=O)O)cc1", "reported": 1.06}

Could you now consider this next molecule?
Prompt line: Request the reported normalized growth associated with CC(=O)NS(=O)(=O)c1ccc(NC(=O)c2ccccc2C(=O)O)cc1
Response line: 1.01

----------
Exercise: state measured normalized growth for each of the compounds provided.
- experimental-details: chemical genetic growth profiling, strain panel (AID 1159580);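 also: tested at 20 µM; growth read once vehicle control cultures reached saturation at 30 °C; 1 = growth at the plate median or of vehicle wells; lower values mean less growth of the strain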
- applied-conditions: S. cerevisiae deletion strains, growth OD, locus YDR052C, strain DBF4, active compounds read low
In all, about 5,500 compounds went through this assay and about 2,000 (36%) were called active. Another 18% or so got no clear call; they are omitted. This is one part of the list.
Answers are plain numbers.

Below are worked cases with known answers.
{"compound": "CCOC(=O)c1cnc2c(c(C)nn2C)c1Sc1nnc(SC)s1", "normalized growth": 0.89}
{"compound": "O=C(Nc1cc2c(s1)-c1cc(Cl)ccc1SC2)Oc1ccccc1", "normalized growth": 0.997}
{"compound": "CC(=O)c1ccccc1C(=O)c1ccc(C(C)(C)C)cc1", "normalized growth": 0.964}
{"compound": "FC(F)(F)c1cc(-c2ccc(Cl)cc2)n[nH]1", "normalized growth": 0.927}
{"compound": "Cc1ccc(OCc2n[nH]c(=S)n2Cc2ccccc2)c2c1CCC2", "normalized growth": 0.995}

Fill in normalized growth for each of the 8 compounds listed.
1. O=c1c(-c2ccccc2)c(O)c2cccc3c4ccccc4n1c23
2. Cn1nc(-c2ccccc2)c(O)c(N=Nc2ccccc2)c1=O
3. CN1c2ccccc2C(C)(C)C12C=Cc1cc(O)ccc1O2 (centres undefined)
4. O=C(NNC(=S)Nc1ccc(Cl)cc1)c1ncc(C(F)(F)F)cc1Cl
5. CC(C)(C)c1ccc(C(=O)NNC(=S)Nc2ccc(Cl)cc2)cc1
6. CC(C)(C)C(=O)c1sc2sc(C(=O)C(C)(C)C)c(N)c2c1N
7. CSc1nnc(COc2ccc(C)c3c2CCC3)n1-c1ccccc1
8. Clc1ccc(N/N=C\c2sccc2Oc2ccccc2)cc1

Response line:
0.344
0.985
0.982
0.991
0.986
0.999
0.98
0.95

----------
- experimental-details: chemical genetic growth profiling, strain panel (AID 1159580);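 also: tested at 20 µM; growth read once vehicle control cultures reached saturation at 30 °C; 1 = growth at the plate median or of vehicle wells; lower values mean less growth of the strain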
- applied-conditions: S. cerevisiae deletion strains, growth OD, locus YDR159W, strain sac3, active compounds read low
In all, about 5,500 compounds went through this assay and about 2,000 (36%) were called active. Another 18% or so got no clear call; they are omitted. Some of the results follow.
readout: normalized growth
Numbers only.

Some molecules with recorded normalized growth:
{"molecule": "COc1ccc(C(=O)c2ccccc2)c(O)c1O", "reported": 0.975}
{"molecule": "CCOc1ccc(C(=O)c2ccc(OC)c(O)c2O)cc1", "reported": 1.05}
{"molecule": "NCCc1c[nH]c2ccccc12", "reported": 0.925}
{"molecule": "CCOC([O-])=Nc1c[n+](N2CCOCC2)no1", "reported": 0.993}
{"molecule": "CCOc1ccc(C(=O)c2ccc(O)c(O)c2O)cc1", "reported": 0.924}

Return reported normalized growth values for all items listed beneath this line.
1. C#CC1(O)CCC2C3CCC4=CC(=O)CCC4(C)C3CCC21C (configuration not stated)
2. CCOc1ccc(NC(C)=O)cc1

Response line:
1: 0.937; 2: 1.01
